assay: Half-life of compound was determined at pH 9; assay type: ADME
value.type: half-life (h)
Output spec: scalar in h, unitless text.

Report half-life for O=C(O)[C@@H]1[C@@H](CC2CCNCC2)C(=O)N1C(=O)N1CCN(C(=O)CCCCCc2ccccc2)CC1 please. 35

----------
target: Urokinase-type plasminogen activator (Homo sapiens, UniProt P00749); assay: Inhibitory activity of compound against Urokinase-type plasminogen activator was determined
value.type: IC50 (µM)
Note: unit µM is implicit; provide only the numeric part.

Field: IC50 (Urokinase-type plasminogen activator (Homo sapiens, UniProt P00749)). Entry: CC(C)C(OC(=O)N1CCN(C(=O)N2C(=O)[C@H](CC3CCNCC3)[C@H]2C(=O)O)CC1)C(C)C 7
